# tested on: dpp promoter region
# procedure summary: Gel mobility shift assay of CodY binding to the dpp promoter region
# assay conditions: read-out: Estimated KD (nM), +GTP, ILV; GTP (2 mM) and isoleucine, valine and leucine (10 mM each); CodY concentration that shifted 50% of the DNA
readout kind: Kd

Request: Tell me the measured Kd of S215F (protein, UniProt P39779 2-259, looked up, variant S215F) Global transcriptional …: ALLQKTRIINSMLQAAAGKPVNFKEMAETLRDVIDSNIFVVSRRGKLLGYSINQQIENDRMKKMLEDRQFPEEYTKNLFNVPETSSNLDINSEYTAFPVENRDLFQAGLTTIVPIIGGGERLGTLILSRLQDQFNDDDLILAEYGATVVGMEILREKAEEIEEEARSKAVVQMAISSLSYSELEAIEHIFEELDGNEGLLVASKIADRVGITRFVIVNALRKLESAGVIESRSLGMKGTYIKVLNNKFLIELENLKSH , please.
Response: 350 to 400 nM

Request: # repeat for WT: wild-type B. subtilis CodY, a GTP-activated repressor protein (protein) ALLQKTRIINSMLQAAAGKPVNFKEMAETLRDVIDSNIFVVSRRGKLLGYSINQQIENDRMKKMLEDRQFPEEYTKNLFNVPETSSNLDINSEYTAFPVENRDLFQAGLTTIVPIIGGGERLGTLILSRLQDQFNDDDLILAEYGATVVGMEILREKAEEIEEEARSKAVVQMAISSLSYSELEAIEHIFEELDGNEGLLVASKIADRVGITRSVIVNALRKLESAGVIESRSLGMKGTYIKVLNNKFLIELENLKSH
Response: 20 nM

Request: # repeat for S215T (protein, UniProt P39779 2-259, looked up, variant S215T) Global transcriptional …: ALLQKTRIINSMLQAAAGKPVNFKEMAETLRDVIDSNIFVVSRRGKLLGYSINQQIENDRMKKMLEDRQFPEEYTKNLFNVPETSSNLDINSEYTAFPVENRDLFQAGLTTIVPIIGGGERLGTLILSRLQDQFNDDDLILAEYGATVVGMEILREKAEEIEEEARSKAVVQMAISSLSYSELEAIEHIFEELDGNEGLLVASKIADRVGITRTVIVNALRKLESAGVIESRSLGMKGTYIKVLNNKFLIELENLKSH
Response: > 500 nM

Request: # repeat for V218A (protein, UniProt P39779 2-259, looked up, variant V218A) Global transcriptional …: ALLQKTRIINSMLQAAAGKPVNFKEMAETLRDVIDSNIFVVSRRGKLLGYSINQQIENDRMKKMLEDRQFPEEYTKNLFNVPETSSNLDINSEYTAFPVENRDLFQAGLTTIVPIIGGGERLGTLILSRLQDQFNDDDLILAEYGATVVGMEILREKAEEIEEEARSKAVVQMAISSLSYSELEAIEHIFEELDGNEGLLVASKIADRVGITRSVIANALRKLESAGVIESRSLGMKGTYIKVLNNKFLIELENLKSH
Response: 100 to 200 nM

Origin of the recorded values: patent US20070142318A1
